assay: LogP via HPLC according to EEC directive 79/831 Annex V.A8 (gradient method, acetonitrile / 0,1 % aqueous formic acid); type: physicochemical; details: read-out: lgP (HCOOH)
# strict inequality: chromatographic logP < 1 yields label 1, everything else yields label 0

{"Compound": "CCc1csc(=N[C@@H](C)c2ccc(Cl)cc2)n1CCO [Example 2-288]", "Class Name": "label 0"}
{"Compound": "C[C@H](N=c1scc(-c2ccccc2)n1CCO)c1ccc(F)cc1 [Example 2-160]", "Class Name": "label 0"}
{"Compound": "C[C@H](N=c1scc(C2CCCC2)n1CCO)c1ccc(F)cc1 [Example 2-158]", "Class Name": "label 0"}
{"Compound": "COc1ccc([C@H](C)N=c2scc(C(C)C)n2CCO)cc1 [Example 2-274]", "Class Name": "label 0"}
{"Compound": "Cc1csc(=N[C@@H](C)c2ccc(Cl)cc2)n1CCO [Example 2-287]", "Class Name": "label 0"}
{"Compound": "CC(C)c1csc(=N[C@@H](C)c2ccccc2)n1CCO [Example 2-19]", "Class Name": "label 0"}
{"Compound": "CC(C)c1csc(=N[C@@H](C)c2ccc(Cl)cc2)n1CCO [Example 2-289]", "Class Name": "label 0"}
{"Compound": "CC[C@H](N=c1scc(C(C)C)n1CCO)c1ccccc1 [Example 2-364]", "Class Name": "label 0"}
{"Compound": "CC[C@H](N=c1scc(C2CCCC2)n1CCO)c1ccccc1 [Example 2-368]", "Class Name": "label 0"}
{"Compound": "C[C@H](N=c1scc(-c2ccccc2)n1CCO)c1ccccc1 [Example 2-25]", "Class Name": "label 0"}
{"Compound": "Cc1sc(=N[C@@H](C)c2ccccc2)n(CCO)c1C [Example 2-21]", "Class Name": "label 0"}
{"Compound": "CCc1csc(=N[C@@H](CC)c2ccccc2)n1CCO [Example 2-363]", "Class Name": "label 0"}
{"Compound": "C[C@H](N=c1scc(C2(Cl)CC2)n1CCO)c1ccccc1 [Example 2-29]", "Class Name": "label 0"}
{"Compound": "COc1ccc([C@H](C)N=c2scc(-c3ccccc3)n2CCO)cc1 [Example 2-280]", "Class Name": "label 0"}
{"Compound": "C[C@H](N=c1scc(C2CCCC2)n1CCO)c1ccc(Cl)cc1 [Example 2-293]", "Class Name": "label 0"}
{"Compound": "CCc1csc(=N[C@@H](C)c2ccccc2)n1CCO [Example 2-18]", "Class Name": "label 1"}
{"Compound": "C[C@H](N=c1scc(-c2cccnc2)n1CCO)c1ccc(F)cc1 [Example 2-162]", "Class Name": "label 1"}
{"Compound": "C[C@H](N=c1scc(C2CC2)n1CCO)c1ccc(F)cc1 [Example 2-157]", "Class Name": "label 0"}
{"Compound": "C[C@H](N=c1scc(-c2cccnc2)n1CCO)c1ccccc1 [Example 2-27]", "Class Name": "label 1"}
{"Compound": "C[C@H](N=c1scc(C2(Cl)CC2)n1CCO)c1ccc(Cl)cc1 [Example 2-299]", "Class Name": "label 0"}
{"Compound": "C[C@H](N=c1scc(-c2cccnc2)n1CCO)c1ccc(Cl)cc1 [Example 2-297]", "Class Name": "label 0"}
{"Compound": "COc1ccc([C@H](C)N=c2scc(-c3cccnc3)n2CCO)cc1 [Example 2-282]", "Class Name": "label 1"}
{"Compound": "COc1ccc([C@H](C)N=c2scc(C3(Cl)CC3)n2CCO)cc1 [Example 2-284]", "Class Name": "label 0"}
{"Compound": "COc1ccc([C@H](C)N=c2scc(C)n2CCO)cc1 [Example 2-272]", "Class Name": "label 1"}
{"Compound": "CC[C@H](N=c1scc(-c2ccccc2)n1CCO)c1ccccc1 [Example 2-370]", "Class Name": "label 0"}
{"Compound": "CC[C@H](N=c1scc(C2CC2)n1CCO)c1ccccc1 [Example 2-367]", "Class Name": "label 0"}
{"Compound": "COc1ccc([C@H](C)N=c2scc(C3CC3)n2CCO)cc1 [Example 2-277]", "Class Name": "label 0"}
{"Compound": "C[C@H](N=c1scc(C2CCCC2)n1CCO)c1ccccc1 [Example 2-23]", "Class Name": "label 0"}
{"Compound": "CC[C@H](N=c1scc(C2(Cl)CC2)n1CCO)c1ccccc1 [Example 2-374]", "Class Name": "label 0"}
{"Compound": "CC(C)c1csc(=N[C@@H](C)c2ccc(F)cc2)n1CCO [Example 2-154]", "Class Name": "label 0"}
{"Compound": "C[C@H](N=c1scc(C2(Cl)CC2)n1CCO)c1ccc(F)cc1 [Example 2-164]", "Class Name": "label 0"}
{"Compound": "Cc1cs/c(=N/[C@@H](C)c2ccc(F)cc2)n1CCO [Example 2-152]", "Class Name": "label 1"}
{"Compound": "COc1ccc([C@H](C)N=c2scc(C3CCCC3)n2CCO)cc1 [Example 2-278]", "Class Name": "label 0"}
{"Compound": "C[C@H](N=c1scc(-c2ccccc2)n1CCO)c1ccc(Cl)cc1 [Example 2-295]", "Class Name": "label 0"}
{"Compound": "Cc1csc(=N[C@@H](C)c2ccccc2)n1CCO [Example 2-17]", "Class Name": "label 1"}

The reported measurements were obtained from patent EP2042492A1.
